# TEST_TARGET: T1, monkey CD22 protein (ACROBiosystems, catalog number SI2-R52Ha) (monkey, UniProt F6W485 20-688)
# T1 construct: commercial protein; also called monkey CD22-ECD; monkey CD22-ECD-His
# T1 sequence: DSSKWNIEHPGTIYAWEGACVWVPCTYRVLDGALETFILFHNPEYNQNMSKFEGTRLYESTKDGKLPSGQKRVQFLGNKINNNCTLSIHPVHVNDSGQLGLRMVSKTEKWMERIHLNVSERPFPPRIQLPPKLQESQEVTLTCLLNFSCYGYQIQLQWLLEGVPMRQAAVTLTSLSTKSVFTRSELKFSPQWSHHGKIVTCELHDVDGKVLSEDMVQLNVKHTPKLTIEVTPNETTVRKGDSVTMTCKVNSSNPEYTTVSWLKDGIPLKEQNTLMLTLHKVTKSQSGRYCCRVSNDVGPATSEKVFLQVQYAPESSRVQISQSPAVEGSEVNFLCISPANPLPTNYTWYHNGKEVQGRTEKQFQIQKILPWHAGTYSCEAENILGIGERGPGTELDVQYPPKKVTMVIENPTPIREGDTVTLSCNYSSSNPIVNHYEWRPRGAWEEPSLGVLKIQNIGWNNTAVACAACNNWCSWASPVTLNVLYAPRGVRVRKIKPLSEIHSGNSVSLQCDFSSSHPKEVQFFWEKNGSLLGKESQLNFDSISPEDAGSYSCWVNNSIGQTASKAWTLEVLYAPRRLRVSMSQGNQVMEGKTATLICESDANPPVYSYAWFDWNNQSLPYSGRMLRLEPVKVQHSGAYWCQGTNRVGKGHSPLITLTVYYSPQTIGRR
# TEST_DETAILS: ELISA, coated monkey CD22 protein, antibody 100 nM
MEASUREMENT_LABEL: OD450

Looking up F1.105.11 (antibody, human IgG1, kappa, V domains shown, human-murine chimeric IgG1 kappa; VL name legible) VH: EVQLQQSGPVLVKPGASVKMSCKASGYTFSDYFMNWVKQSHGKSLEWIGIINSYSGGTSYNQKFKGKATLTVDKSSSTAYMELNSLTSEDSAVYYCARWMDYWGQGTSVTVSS VL: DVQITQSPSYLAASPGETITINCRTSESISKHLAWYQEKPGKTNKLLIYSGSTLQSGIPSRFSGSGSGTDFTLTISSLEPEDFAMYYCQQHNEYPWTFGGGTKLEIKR , I see its OD450 listed as 1.29 OD450

Looking up F2.343.16 (antibody, human IgG1, lambda, V domains shown, human-murine chimeric IgG1 lambda; VL name legible) VH: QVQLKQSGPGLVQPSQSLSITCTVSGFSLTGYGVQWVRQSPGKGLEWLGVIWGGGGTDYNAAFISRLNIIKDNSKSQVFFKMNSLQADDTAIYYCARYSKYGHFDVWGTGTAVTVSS VL: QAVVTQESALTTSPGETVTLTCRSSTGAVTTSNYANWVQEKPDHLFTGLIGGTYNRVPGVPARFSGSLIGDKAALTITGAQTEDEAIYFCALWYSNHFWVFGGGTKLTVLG , I see its OD450 listed as 0.08 OD450
